These entries and their values trace back to PubChem BioAssay (NCI).

- System: ACHN renal
- protocolDescription: NCI-60 one-dose screen, 48 h (100 = growth as untreated, 0 = no growth, -100 = all killed)
- studyConditions: 10 µM unless noted
About 83,000 compounds went through this panel and 20% of them were active in at least one assay; those are over-represented in the sample as a whole.
// growth lookup, one value per entry
Kindly provide the numeric value in % only, without the unit symbol.

Please list growth recorded for the molecule Cc1ccc(C(=O)CSc2nc3ccccc3c(=O)n2C)cc1
83.7

Please list growth recorded for the molecule NC(=O)c1c(NC(=O)c2ccc(C(F)(F)F)cc2)sc2c1CCC(=O)C2
-47.1

Please list growth recorded for the molecule CN1CCN(Cc2ccc(NC(=O)c3cncc(C#Cc4cnc5ccc(OCC6COC6)nn45)c3)cc2C(F)(F)F)CC1
-96.5

###

- Test system: M14 melanoma
- protocolDescription: NCI-60 one-dose screen, 48 h (100 = growth as untreated, 0 = no growth, -100 = all killed)
- studyConditions: 10 µM unless noted
Compounds without any hit were thinned out: in the full panel of roughly 83,000, 20% have a hit.
// growth lookup, one value per entry
Kindly provide the numeric value in % only, without the unit symbol.

These solved cases illustrate the format of a correct answer.
[[record]]
molecule = "CCOC(=O)c1ccccc1NC1=C(Cl)C(=O)c2nc(C)ccc2C1=O"
experimentalvalue = 109

[[record]]
molecule = "C#Cc1cc(OC)c(C(=O)Nc2ccc(F)cc2C(=O)Nc2cccc(S(=O)(=O)C(F)(F)F)c2)cn1"
experimentalvalue = 16.7

[[record]]
molecule = "C=C(C)[C@@H]1CC[C@]2(C(=O)N3CCN(C)CC3)CC[C@]3(C)[C@H](CC[C@@H]4[C@@]5(C)CC[C@H](OP(=O)(OCC)OCC)C(C)(C)[C@@H]5CC[C@]43C)[C@@H]12"
experimentalvalue = 102

[[record]]
molecule = "O=C(CSc1cc[n+](CCCCO)c2ccccc12)n1ccc2ccccc21"
experimentalvalue = 96.6

[[record]]
molecule = "Cc1ccccc1NC(=O)Nc1nc2ccc([N+](=O)[O-])cc2s1"
experimentalvalue = 19.9

[[record]]
molecule = "NC(=O)c1ncn2c(=O)n(CCF)nnc12"
experimentalvalue = 33.9


Param request: growth | system M14 melanoma | item CC1=C(C)C(=O)C(Nc2cccc(C(=O)OC(C)(C)C)c2)=CC1=O
88.3

Param request: growth | system M14 melanoma | item C=C(C=O)[C@@H]1CC[C@]2(C(=O)O)CC[C@]3(C)C(CC[C@@H]4[C@@](C)(CCC#N)[C@H](C(=C)C=O)CC[C@]43C)[C@@H]12 (some centres undefined)
13.2

Param request: growth | system M14 melanoma | item NS(=O)(=O)c1ccc(Nc2nc(N/N=C/C=C/c3ccccc3)nc(Nc3ccccc3)n2)cc1
40.3

###

- Tested on: SK-MEL-2 melanoma
- protocolDescription: NCI-60 one-dose screen, 48 h
- studyConditions: 10 µM unless noted
About 83,000 compounds went through this panel and 20% of them were active in at least one assay; those are over-represented in the sample as a whole. Calls of active or inactive are those of the source. Rule for the calls: active = growth percent below 10; inactive = the rest.
Returns: one label drawn from active, inactive

[[record]]
compound = "Cc1[nH]c(C(=O)Nc2ccc(C(N)=O)cc2N2CCOC(C)C2)c(Cl)c1Cl (stereo not drawn)"
grouplabel = "inactive"


Look up the recorded call for COc1ccc(C2CC(c3cccc(OCCCCOc4cccc(C5=NN(C(C)=O)C(c6ccc(OC)cc6)C5)c4)c3)=NN2C(C)=O)cc1 (stereo not drawn) in this test.
inactive

Look up the recorded call for CC1=C(C)C(=O)C(Nc2cccc(C(F)(F)F)c2)=C(Br)C1=O in this test.
inactive

Look up the recorded call for Cc1ccc(/C=N/Nc2nc(Nc3ccccc3)nc(Nc3ccc(S(N)(=O)=O)cc3)n2)cc1 in this test.
inactive

Look up the recorded call for O=C(/C=C/c1ccccc1Cl)Nc1ncc(Cc2cc(Cl)ccc2Cl)s1 in this test.
inactive

Look up the recorded call for CC(=O)OC[C@]12CC[C@@H](C(=O)/C=C/c3cccnc3)[C@@H]1[C@H]1CC[C@@H]3[C@@]4(C)CC[C@H](OC(C)=O)C(C)(C)[C@@H]4CC[C@@]3(C)[C@]1(C)CC2 in this test.
active

Look up the recorded call for CCn1c2ccc(/C=N/N(C)S(=O)(=O)CCN(C)C)cc2c2cc(/C=N/N(C)S(=O)(=O)CCN(C)C)ccc21 in this test.
inactive

Look up the recorded call for O=C(/C=C/c1csc(Br)n1)NO in this test.
inactive

Look up the recorded call for N#Cc1nc(-c2ccc(Cl)cc2)oc1N1CCC(S(=O)(=O)N2CCOCC2)CC1 in this test.
inactive

Look up the recorded call for COc1cc2c3c(cc4c5c(ccc4c3c1OC)OCO5)N(CCN(C)C)C2=O in this test.
active
